# Test system: HT29 RAMS11 overexpressing cells
# METHOD NOTES: High-throughput viability assay (resazurin), 119 FDA-approved anticancer drugs, RAMS11 overexpressing cells (Clone1, Clone2)
# STATED CONDITIONS: OE1 (RAMS11 overexpression clone 1), 1 uM drug, 72 h, vs empty vector control
Where a name gives a salt, the structure may show the parent alone.
READOUT LABEL: Viability Fold Change
// return a plain number; no unit text

Record excerpt, results attached:
- MOLECULE: "Nc1cccc2c1C(=O)N(C1CCC(=O)NC1=O)C2=O (centres unmarked) [Pomalidomide]"
  ASSAYED SYSTEM: "HT29 RAMS11 overexpressing cells"
  TEST VALUE: 0.9509
- MOLECULE: "CN(C)/N=N/c1[nH]cnc1C(N)=O [Dacarbazine]"
  ASSAYED SYSTEM: "HT29 RAMS11 overexpressing cells"
  TEST VALUE: 0.9877
- MOLECULE: "O=P1(NCCCl)OCCCN1CCCl (centres unmarked) [Ifosfamide]"
  ASSAYED SYSTEM: "HT29 RAMS11 overexpressing cells"
  TEST VALUE: 1.025
- MOLECULE: "O=P(O)(O)C(O)(Cn1ccnc1)P(=O)(O)O [Zoledronic acid]"
  ASSAYED SYSTEM: "HT29 RAMS11 overexpressing cells"
  TEST VALUE: 0.9911

Query: Viability Fold Change for CC/C(=C(\c1ccccc1)c1ccc(OCCN(C)C)cc1)c1ccccc1 [Tamoxifen Citrate] ?
Reply: 1.144
